Origin of the recorded values: paper PMC6136360

tested_on: TDP1 (Homo sapiens)
Construct: made in house; host or cells: E. coli
test_description: Steady-state kinetic analysis of TDP1 reaction, double-stranded (hairpin) substrate
Format: biochemical
experimental_parameters: Cornish-Bowden method, read-out: Inhibition constant, KI
Ki by entry:

smiles_repr: O=C(OC[C@H]1O[C@@H](O[C@H]2C[C@H](n3cc(I)c(=O)[nH]c3=O)O[C@@H]2CO)[C@H](OC(=O)c2ccccc2)[C@@H]1OC(=O)c1ccccc1)c1ccccc1
Ki: 2100 nM
//
smiles_repr: CC(C)[Si]1(C(C)C)OC[C@H]2O[C@@H](n3cnc4c(NC(=O)c5ccccc5)ncnc43)[C@H](O[C@@H]3O[C@H](COC(=O)c4ccccc4)[C@@H](OC(=O)c4ccccc4)[C@H]3OC(=O)c3ccccc3)[C@@H]2O[Si](C(C)C)(C(C)C)O1
Ki: 200 nM
//
smiles_repr: CC(C)[Si]1(C(C)C)OC[C@H]2O[C@@H](n3ccc(=O)[nH]c3=O)[C@H](O[C@@H]3O[C@H](COC(=O)c4ccccc4)[C@@H](OC(=O)c4ccccc4)[C@H]3OC(=O)c3ccccc3)[C@@H]2O[Si](C(C)C)(C(C)C)O1
Ki: 400 nM
//
smiles_repr: CC(C)C(=O)Nc1nc2c(ncn2[C@@H]2O[C@@H]3CO[Si](C(C)C)(C(C)C)O[Si](C(C)C)(C(C)C)O[C@H]3[C@H]2O[C@@H]2O[C@H](COC(=O)c3ccccc3)[C@@H](OC(=O)c3ccccc3)[C@H]2OC(=O)c2ccccc2)c(=O)[nH]1
Ki: 300 nM
//
smiles_repr: Cc1cn([C@@H]2O[C@@H]3CO[Si](C(C)C)(C(C)C)O[Si](C(C)C)(C(C)C)O[C@H]3[C@H]2O[C@@H]2O[C@H](COC(=O)c3ccccc3)[C@@H](OC(=O)c3ccccc3)[C@H]2OC(=O)c2ccccc2)c(=O)[nH]c1=O
Ki: 300 nM
//
smiles_repr: Cc1cn([C@@H]2O[C@H](COP(=O)([O-])[O-])[C@@H](O)[C@H]2O[C@@H]2O[C@H](CO)[C@@H](O)[C@H]2O)c(=O)[nH]c1=O.[Na+].[Na+]
Ki: 8800 nM
//
smiles_repr: CC(C)C(=O)Nc1nc2c(ncn2[C@@H]2O[C@H](CO)[C@@H](O)[C@H]2O[C@@H]2O[C@H](COC(=O)c3ccccc3)[C@@H](OC(=O)c3ccccc3)[C@H]2OC(=O)c2ccccc2)c(=O)[nH]1
Ki: 3100 nM

---

tested_on: TDP1 (Homo sapiens, UniProt Q9NUW8)
Construct: made in house; host or cells: E. coli
Sequence (Q9NUW8 whole entry): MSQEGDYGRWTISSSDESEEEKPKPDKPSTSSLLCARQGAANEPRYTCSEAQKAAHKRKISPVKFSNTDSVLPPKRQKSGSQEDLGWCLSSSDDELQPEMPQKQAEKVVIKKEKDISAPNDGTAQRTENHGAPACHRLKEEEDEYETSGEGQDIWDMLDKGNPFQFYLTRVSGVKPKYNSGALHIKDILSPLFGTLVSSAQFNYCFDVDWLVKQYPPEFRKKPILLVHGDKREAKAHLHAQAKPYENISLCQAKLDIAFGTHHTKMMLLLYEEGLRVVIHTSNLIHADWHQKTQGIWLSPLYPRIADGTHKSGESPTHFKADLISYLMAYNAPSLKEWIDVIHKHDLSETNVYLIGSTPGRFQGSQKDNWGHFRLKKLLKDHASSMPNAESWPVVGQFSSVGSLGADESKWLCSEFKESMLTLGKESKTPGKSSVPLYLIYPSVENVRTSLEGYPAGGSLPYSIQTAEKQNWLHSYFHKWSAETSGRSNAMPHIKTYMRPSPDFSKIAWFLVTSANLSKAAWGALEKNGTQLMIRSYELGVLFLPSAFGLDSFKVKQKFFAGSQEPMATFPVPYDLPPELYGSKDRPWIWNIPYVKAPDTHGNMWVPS
test_description: Steady-state kinetic analysis of TDP1 reaction, single-stranded substrate
Type: biochemical
experimental_parameters: Cornish-Bowden method, read-out: Inhibition constant, KI
pKi: −log10 of the molar value.
measurement_name: pKi

smiles_repr: CC(C)[Si]1(C(C)C)OC[C@H]2O[C@@H](n3ccc(=O)[nH]c3=O)[C@H](O[C@@H]3O[C@H](COC(=O)c4ccccc4)[C@@H](OC(=O)c4ccccc4)[C@H]3OC(=O)c3ccccc3)[C@@H]2O[Si](C(C)C)(C(C)C)O1
measurement_name: pKi
numeric_readout: 6.52

smiles_repr: CC(C)[Si]1(C(C)C)OC[C@H]2O[C@@H](n3cnc4c(NC(=O)c5ccccc5)ncnc43)[C@H](O[C@@H]3O[C@H](COC(=O)c4ccccc4)[C@@H](OC(=O)c4ccccc4)[C@H]3OC(=O)c3ccccc3)[C@@H]2O[Si](C(C)C)(C(C)C)O1
measurement_name: pKi
numeric_readout: 6.52

smiles_repr: O=C(OC[C@H]1O[C@@H](O[C@H]2C[C@H](n3cc(I)c(=O)[nH]c3=O)O[C@@H]2CO)[C@H](OC(=O)c2ccccc2)[C@@H]1OC(=O)c1ccccc1)c1ccccc1
measurement_name: pKi
numeric_readout: 6.22

smiles_repr: Cc1cn([C@@H]2O[C@@H]3CO[Si](C(C)C)(C(C)C)O[Si](C(C)C)(C(C)C)O[C@H]3[C@H]2O[C@@H]2O[C@H](COC(=O)c3ccccc3)[C@@H](OC(=O)c3ccccc3)[C@H]2OC(=O)c2ccccc2)c(=O)[nH]c1=O
measurement_name: pKi
numeric_readout: 6.05

smiles_repr: Cc1cn([C@@H]2O[C@H](COP(=O)([O-])[O-])[C@@H](O)[C@H]2O[C@@H]2O[C@H](CO)[C@@H](O)[C@H]2O)c(=O)[nH]c1=O.[Na+].[Na+]
measurement_name: pKi
numeric_readout: 5.10

---

tested_on: TDP1 (Homo sapiens)
Construct: made in house; host or cells: E. coli
test_description: Steady-state kinetic analysis of TDP1 reaction, single-stranded substrate
Assay type: biochemical
measurement_name: Type of inhibition

smiles_repr: CC(C)[Si]1(C(C)C)OC[C@H]2O[C@@H](n3ccc(=O)[nH]c3=O)[C@H](O[C@@H]3O[C@H](COC(=O)c4ccccc4)[C@@H](OC(=O)c4ccccc4)[C@H]3OC(=O)c3ccccc3)[C@@H]2O[Si](C(C)C)(C(C)C)O1
measurement_name: Type of inhibition
result: Mixed
--
smiles_repr: CC(C)C(=O)Nc1nc2c(ncn2[C@@H]2O[C@H](CO)[C@@H](O)[C@H]2O[C@@H]2O[C@H](COC(=O)c3ccccc3)[C@@H](OC(=O)c3ccccc3)[C@H]2OC(=O)c2ccccc2)c(=O)[nH]1
measurement_name: Type of inhibition
result: Mixed
--
smiles_repr: CC(C)[Si]1(C(C)C)OC[C@H]2O[C@@H](n3cnc4c(NC(=O)c5ccccc5)ncnc43)[C@H](O[C@@H]3O[C@H](COC(=O)c4ccccc4)[C@@H](OC(=O)c4ccccc4)[C@H]3OC(=O)c3ccccc3)[C@@H]2O[Si](C(C)C)(C(C)C)O1
measurement_name: Type of inhibition
result: Mixed
